All figures here come from patent US11820766B2.

Biological target: human MGL from HeLa cells (Homo sapiens, UniProt Q99685)
Construct: combining endogenously expressed MGL from HeLa cells with test compounds; endogenous in cells; host or cells: HeLa cells / cell homogenates
Sequence (Q99685 1-303): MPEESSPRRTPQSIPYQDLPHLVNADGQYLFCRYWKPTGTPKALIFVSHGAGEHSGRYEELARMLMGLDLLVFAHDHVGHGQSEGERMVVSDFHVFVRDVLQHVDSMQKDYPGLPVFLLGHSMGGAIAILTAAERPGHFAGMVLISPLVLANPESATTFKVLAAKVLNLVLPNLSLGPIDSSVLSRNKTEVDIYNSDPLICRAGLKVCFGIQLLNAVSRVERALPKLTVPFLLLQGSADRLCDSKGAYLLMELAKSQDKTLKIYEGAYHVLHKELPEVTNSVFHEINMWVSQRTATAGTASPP
Assay: In vitro MGL activity assay: [glycerol-1,3-3H]-oleyl glycerol cleavage by MGL from HeLa cells
Format: biochemical
Conditions: 300 nM [Glycerol-1,3-3H]-oleyl glycerol, one hour incubation
pIC50: −log10 of the molar value.
Parameter Measured: pIC50

1: COc1cc(F)cc(-c2c3c(nn2C)[C@H](C)N(C(=O)c2ccc4nccnc4c2)CC3)c1
2: Cn1nc2c(c1-c1ccccc1)CCN(C(=O)c1nn(C)c3ccccc13)C2
For this pair, 1 and 2 , which shows a numerically higher pIC50? // respond with label for picked entry 1

a: C[C@H]1c2nn(C)c(-c3cc(F)c(F)c(F)c3)c2CCN1C(=O)c1cccc(F)c1-n1nccn1
b: Cn1nc2c(c1-c1cccc(F)c1)CCN(C(=O)c1ccc3ncccc3c1)C2
c: Cc1nc2ccc(C(=O)N3CCc4c(nn(C)c4-c4cccc(Cl)c4)[C@@H]3C)cc2o1
Arrange these compounds by their pIC50, starting with the largest number. Rank the items, then write their labels in that order. c, b, a

---

biological target: human MGL from HeLa cells (Homo sapiens); construct: combining endogenously expressed MGL from HeLa cells with test compounds; endogenous in cells; host or cells: HeLa cells / cell homogenates; test: In vitro MGL activity assay: [glycerol-1,3-3H]-oleyl glycerol cleavage by MGL from HeLa cells; format: biochemical; conditions: 300 nM [Glycerol-1,3-3H]-oleyl glycerol, one hour incubation
Parameter Measured: IC50 (nM)

# Chemical String, IC50 [nM]
records = [
    ("Cc1cc(C(=O)N2CCc3c(nn(C)c3-c3cc(F)c(F)c(F)c3)[C@@H]2C)c2ccccc2n1", 3.74),
    ("Cn1nc2c(c1-c1ccccc1)CCN(C(=O)c1cn(C)c3ccccc13)C2", 138),
    ("COc1cc(F)cc(-c2c3c(nn2C)[C@H](C)N(C(=O)c2cc4nccnc4cc2F)CC3)c1", 41.7),
    ("COc1cnc(C)c(C(=O)N2CCc3c(nn(C)c3-c3cc(F)c(F)c(F)c3)[C@@H]2C)c1", 115),
    ("Cn1nc2c(c1-c1ccccc1)CCN(C(=O)c1c(F)ccc3[nH]ccc13)C2", 70.2),
]

A: Cn1nc2c(c1-c1ccccc1)CCN(C(=O)c1ccc3scnc3c1)C2
B: CC(C)c1c(C(=O)N2CCc3c(nn(C)c3-c3cc(F)c(F)c(F)c3)[C@@H]2C)cnn1C
Decide: A or B , by lowest recorded IC50. // respond with label for picked entry A
(A: 550 nM, B: 1090 nM)

---

molecular target: human MGL from HeLa cells (Homo sapiens, UniProt Q99685); construct: combining endogenously expressed MGL from HeLa cells with test compounds; endogenous in cells; host or cells: HeLa cells / cell homogenates; experiment: In vitro MGL activity assay: [glycerol-1,3-3H]-oleyl glycerol cleavage by MGL from HeLa cells; assay type: biochemical; details: 300 nM [Glycerol-1,3-3H]-oleyl glycerol, one hour
Parameter Measured: IC50 (nM)

# Chemical String, IC50 (nM)
records = [
    ("C[C@H]1c2nn(C)c(-c3cc(F)c(F)c(F)c3)c2CCN1C(=O)c1cnc2ccccc2n1", 126),
]

I: C[C@H]1c2nn(C)c(-c3cc(F)c(F)c(F)c3)c2CCN1C(=O)c1n[nH]c2ncccc12
II: C[C@H]1c2nn(C)c(-c3cc(F)c(F)c(F)c3)c2CCN1C(=O)c1cnn(C)c1C1CCC1
For this pair, I and II , which shows a numerically higher IC50? // respond with label for picked entry II

---

target: human MGL from HeLa cells (Homo sapiens, UniProt Q99685); construct: combining endogenously expressed MGL from HeLa cells with test compounds; endogenous in cells; host or cells: HeLa cells / cell homogenates; assay: In vitro MGL activity assay: [glycerol-1,3-3H]-oleyl glycerol cleavage by MGL from HeLa cells; type: biochemical; conditions: 300 nM [Glycerol-1,3-3H]-oleyl glycerol, one hour
Parameter Measured: IC50 (nM)

P: Cc1nc2c(F)cc(F)cn2c1C(=O)N1CCc2c(nn(C)c2-c2cc(F)c(F)c(F)c2)[C@@H]1C
Q: C[C@H]1c2nn(C)c(-c3cc(F)c(F)c(F)c3)c2CCN1C(=O)c1ccc2c(c1)OCCC2
R: Cc1ccc2ncc(C(=O)N3CCc4c(nn(C)c4-c4cc(F)c(F)c(F)c4)[C@@H]3C)n2c1
S: C[C@H]1c2nn(C)c(-c3cc(F)c(F)c(F)c3)c2CCN1C(=O)c1cnc2c(c1)OCCN2
Arrange the above in rising order of IC50. Rank the items, then write their labels in that order. Q, S, R, P
(Q: 7.52 nM, S: 12.7 nM, R: 52.3 nM, P: 173 nM)

---

biological target: human MGL from HeLa cells (Homo sapiens, UniProt Q99685); construct: combining endogenously expressed MGL from HeLa cells with test compounds; endogenous in cells; host or cells: HeLa cells / cell homogenates; assay: In vitro MGL activity assay: [glycerol-1,3-3H]-oleyl glycerol cleavage by MGL from HeLa cells; type: biochemical; conditions: 300 nM [Glycerol-1,3-3H]-oleyl glycerol, one hour incubation
Parameter Measured: IC50 (nM)

Reference set (4 entries):
# Chemical String, IC50 (nM)
data = [
    ("Cc1nc2ccc(C(=O)N3CCc4c(nn(C)c4-c4cc(Cl)cc(Cl)c4)[C@@H]3C)cc2o1", 4.89),
    ("Cn1nc2c(c1-c1ccccc1)CCN(C(=O)c1cccc(OC(F)(F)F)n1)C2", 2430),
    ("Cn1nc2c(c1-c1ccccc1)CCN(C(=O)c1cccc3nccnc13)C2", 4260),
    ("Cc1cnc2cc(C(=O)N3CCc4c(nn(C)c4-c4cc(F)c(F)c(F)c4)[C@@H]3C)ccc2n1", 25),
]

a: Cn1nc2c(c1-c1ccccc1)CCN(C(=O)c1c[nH]c3c(Cl)cccc13)C2
b: C[C@H]1c2nn(C)c(-c3cc(Cl)cc(Cl)c3)c2CCN1C(=O)c1ccc2ncccc2c1
For this pair, a and b , which shows a numerically higher IC50? // respond with label for picked entry a

---

Target: human MGL from HeLa cells (Homo sapiens)
Construct: combining endogenously expressed MGL from HeLa cells with test compounds; endogenous in cells; host or cells: HeLa cells / cell homogenates
Sequence (Q99685 1-303): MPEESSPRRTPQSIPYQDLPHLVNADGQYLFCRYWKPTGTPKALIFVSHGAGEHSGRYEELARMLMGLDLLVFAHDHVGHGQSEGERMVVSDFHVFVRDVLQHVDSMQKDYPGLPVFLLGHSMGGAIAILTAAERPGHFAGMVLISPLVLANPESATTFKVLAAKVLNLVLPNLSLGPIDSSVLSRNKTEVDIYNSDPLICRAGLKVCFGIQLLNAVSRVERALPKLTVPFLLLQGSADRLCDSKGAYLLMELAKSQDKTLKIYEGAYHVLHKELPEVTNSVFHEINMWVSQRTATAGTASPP
Experiment: In vitro MGL activity assay: [glycerol-1,3-3H]-oleyl glycerol cleavage by MGL from HeLa cells
Format: biochemical
Conditions: 300 nM [Glycerol-1,3-3H]-oleyl glycerol, one hour incubation
Parameter Measured: IC50 (nM)

# Compound, Test System, IC50, nM
measured = [
    ("CC1c2nn(C(F)(F)F)c(-c3cc(F)cc(F)c3)c2CCN1C(=O)c1ccc2ncccc2c1 (centres unmarked) [Example 156]", "human MGL from HeLa cells (Homo sapiens)", 17),
    ("CC1c2nn(C)c(-c3cc(F)cc(F)c3)c2CCN1C(=O)c1ccc2nccnc2c1 (centres unmarked) [Example 167]", "human MGL from HeLa cells (Homo sapiens)", 25.1),
    ("C[C@H]1c2nn(C)c(-c3cc(F)c(F)c(F)c3)c2CCN1C(=O)c1cccc2cc[nH]c12 [Example 205]", "human MGL from HeLa cells (Homo sapiens)", 33.3),
    ("C[C@H]1c2nn(C)c(-c3cccc(Cl)c3)c2CCN1C(=O)c1ccc2[nH]c(=O)oc2c1 [Example 124]", "human MGL from HeLa cells (Homo sapiens)", 19.7),
]

A: Cc1ccc(-c2c3c(nn2C)[C@H](C)N(C(=O)c2ccc4nccnc4c2)CC3)cc1Cl [Example 183]
B: C[C@H]1c2nn(C)c(-c3cc(F)c(F)c(F)c3)c2CCN1C(=O)c1cccc(-n2cnnc2)c1 [Example 290]
C: Cn1nc2c(c1C1CC1)CCN(C(=O)c1cccc(Cl)c1Cl)C2 [Example 2]
D: Cn1nc2c(c1-c1ccccc1)CCN(C(=O)c1c[nH]c3ccccc13)C2 [Example 44]
Order each entry by recorded IC50, climbing from the minimum. Rank the items, then write their labels in that order. A, B, D, C
(A: 26.9 nM, B: 71.8 nM, D: 319 nM, C: 4600 nM)
